Fatty acid-binding protein, heart (Homo sapiens): recorded pKi for assorted compounds
Sequence (P05413 whole entry): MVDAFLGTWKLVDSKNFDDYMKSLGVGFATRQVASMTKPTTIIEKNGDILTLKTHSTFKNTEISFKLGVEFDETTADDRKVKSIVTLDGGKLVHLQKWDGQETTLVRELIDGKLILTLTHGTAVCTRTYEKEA
pKi: −log10 of the molar value.

# example entries with known answers
O=C(O)CNc1cccc(-c2ccccc2-c2nc(-c3ccccc3)c(-c3ccccc3)n2CC(=O)O)c1
< 6.00
CC(C)Cn1c(-c2ccccc2-c2cccc(NCC(=O)O)c2)nc(-c2ccccc2)c1-c1ccccc1
< 6.00
CCc1c(-c2ccccc2)c(-c2ccccc2)nn1-c1ccccc1-c1cccc(C(O)C(=O)O)c1 (configuration not stated)
6.44
Cn1c(-c2ccccc2-c2cccc(NCC(=O)O)c2)nc(-c2ccccc2)c1-c1ccccc1
< 6.00
O=C(O)CCCCOc1ccccc1-c1nc(-c2ccccc2)c(-c2ccccc2)o1
7.49

Ask | Record lookup: for Fatty acid-binding protein, heart (Homo sapiens), what pKi belongs to O=C(O)COc1cccc(-c2ccccc2-c2cc(-c3ccccc3)c(-c3ccccc3)[nH]2)c1 ?
Reply | < 6.00

Ask | Record lookup: for Fatty acid-binding protein, heart (Homo sapiens), what pKi belongs to Cn1c(-c2ccccc2-c2cccc(OCC(=O)O)c2)nc(-c2ccccc2)c1-c1ccccc1 ?
Reply | < 6.00

====

# target or system: Fatty acid-binding protein, adipocyte (Homo sapiens, UniProt P15090)
# Sequence (P15090 whole entry): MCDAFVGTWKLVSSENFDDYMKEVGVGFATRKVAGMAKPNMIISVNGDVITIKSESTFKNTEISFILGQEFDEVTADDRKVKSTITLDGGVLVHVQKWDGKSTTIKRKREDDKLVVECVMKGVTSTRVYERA
# test: Displacement of 1,8-ANS from aFABP by fluorescence based-assay
experimental endpoint: Ki (nM)

# example entries with known answers
CCc1c(-c2ccccc2)c(-c2ccccc2)nn1-c1ccccc1-c1cccc(C(=O)O)c1
650
Cn1c(-c2ccccc2-c2cccc(NCC(=O)O)c2)nc(-c2ccccc2)c1-c1ccccc1
2.7
CCc1c(-c2ccccc2-c2cccc(OCC(=O)O)c2)oc(-c2ccccc2)c1-c1ccccc1
3.5

1: O=C(O)CNc1cccc(-c2ccccc2-c2nc(-c3ccccc3)c(-c3ccccc3)[nH]2)c1
2: O=C(O)COc1cccc(-c2ccccc2-c2cc(-c3ccccc3)c(-c3ccccc3)o2)c1
Ask | Higher Ki: 1 or 2 ? Please respond with the label that marks your chosen entry.
Reply | 2
(2: 36 nM, 1: 18 nM)

====

# target or system: Fatty acid-binding protein, adipocyte (Homo sapiens, UniProt P15090)
# test: Displacement of [3H]2,3-bis[(2,4-dichlorobenzyl)oxy]benzoic acid from aFABP
pKi: −log10 of the molar value.
experimental endpoint: pKi

CCc1c(-c2ccccc2-c2cccc(OCC(=O)O)c2)oc(-c2ccccc2)c1-c1ccccc1
7.49
O=C(O)CNc1cccc(-c2ccccc2-c2nc(-c3ccccc3)c(-c3ccccc3)[nH]2)c1
6.52
CCn1c(-c2ccccc2-c2cccc(NCC(=O)O)c2)nc(-c2ccccc2)c1-c1ccccc1
7.89
CCn1c(-c2ccccc2-c2cccc(OCC(=O)O)c2)nc(-c2ccccc2)c1-c1ccccc1
8.48
Cn1c(-c2ccccc2-c2cccc(OCC(=O)O)c2)nc(-c2ccccc2)c1-c1ccccc1
7.89
O=S(=O)(O)c1cccc2cccc(Nc3ccccc3)c12
6.00
O=C(O)COc1cccc(-c2ccccc2-c2nc(-c3ccccc3)c(-c3ccccc3)o2)c1
7.02

I: Cn1c(-c2ccccc2-c2cccc(NCC(=O)O)c2)nc(-c2ccccc2)c1-c1ccccc1
II: O=C(O)COc1cccc(-c2ccccc2-c2nc(-c3ccccc3)c(-c3ccccc3)n2CCF)c1
Ask | Please let me know which one, I or II , has a lower measured pKi value. Please respond with the label that marks your chosen entry.
Reply | I
(I: 7.32, II: 8.06)

====

Fatty acid-binding protein 5 (Homo sapiens): recorded Ki for assorted compounds
Sequence (Q01469 whole entry): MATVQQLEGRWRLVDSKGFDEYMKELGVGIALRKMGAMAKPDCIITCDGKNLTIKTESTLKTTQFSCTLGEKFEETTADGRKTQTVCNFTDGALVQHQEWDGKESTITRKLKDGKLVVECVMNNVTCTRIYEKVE

# example entries with known answers
O=C(O)CNc1cccc(-c2ccccc2-c2nc(-c3ccccc3)c(-c3ccccc3)[nH]2)c1
> 2000 nM
O=C(O)COc1cccc(-c2ccccc2-c2cc(-c3ccccc3)c(-c3ccccc3)[nH]2)c1
> 2000 nM
[3H]c1c(Cl)ccc(COc2cccc(C(=O)O)c2OCc2ccc(Cl)c([3H])c2Cl)c1Cl
2 nM
O=C(O)COc1cccc(-c2ccccc2-c2cc(-c3ccccc3)c(-c3ccccc3)o2)c1
> 2000 nM

The record that follows has no Ki shown yet.
Ask | Look up Ki for this compound: O=C(O)COc1cccc(-c2ccccc2-c2nc(-c3ccccc3)c(-c3ccccc3)[nH]2)c1
Reply | > 2000 nM
